Origin of the recorded values: ChEMBL document CHEMBL3627629

quantity_name: Ki (µM)
Numbers only here, please. The scale is µM.

Lab note: need Ki for COc1ccc(CCOC(=O)NCC2(c3ccccc3)CCN(C)CC2)cc1 on Muscarinic acetylcholine receptor M5 (Homo sapiens), anyone have it?
2.05

Lab note: need Ki for COc1ccc(CCC(=O)OCC2(c3ccccc3)CCN(C)CC2)cc1 on Muscarinic acetylcholine receptor M5 (Homo sapiens), anyone have it?
0.38

Lab note: need Ki for COc1ccc(CCNC(=O)NCC2(c3ccccc3)CCN(C)CC2)cc1 on Muscarinic acetylcholine receptor M5 (Homo sapiens), anyone have it?
4.3

Lab note: need Ki for COc1ccc(CCC(=O)NCC2(c3ccccc3)CCN(C)CC2)cc1 on Muscarinic acetylcholine receptor M5 (Homo sapiens), anyone have it?
1.81

Lab note: need Ki for COc1ccc(CCC(=O)OCC2(c3ccccc3)CCN(C)CC2)cc1OC on Muscarinic acetylcholine receptor M5 (Homo sapiens), anyone have it?
2.14

Lab note: need Ki for COc1ccc(CCNC(=O)OCC2(c3ccccc3)CCN(C)CC2)cc1OC on Muscarinic acetylcholine receptor M5 (Homo sapiens), anyone have it?
5.41

Lab note: need Ki for COc1ccc(CCNC(=O)C2(c3ccccc3)CCN(C)CC2)cc1 on Muscarinic acetylcholine receptor M5 (Homo sapiens), anyone have it?
6.97

Lab note: need Ki for COc1ccc(CCOC(=O)C2(c3ccccc3)CCN(C)CC2)cc1 on Muscarinic acetylcholine receptor M5 (Homo sapiens), anyone have it?
0.87

Lab note: need Ki for COc1ccc(CCOC(=O)C2(c3ccccc3)CCN(C)CC2)cc1OC on Muscarinic acetylcholine receptor M5 (Homo sapiens), anyone have it?
6.95

---

This section lists log10 of Ki readings for Muscarinic acetylcholine receptor M3 (Homo sapiens).
Values below are the log10 of the recorded Ki, with µM as the unit.

Tell me the measured log10 of Ki of COc1ccc(CCOC(=O)C2(c3ccccc3)CCN(C)CC2)cc1 , please.
-0.19

Tell me the measured log10 of Ki of COc1ccc(CCC(=O)OCC2(c3ccccc3)CCN(C)CC2)cc1 , please.
-0.43

Tell me the measured log10 of Ki of COc1ccc(CCNC(=O)OCC2(c3ccccc3)CCN(C)CC2)cc1OC , please.
0.61

Tell me the measured log10 of Ki of COc1ccc(CCOC(=O)C2(c3ccccc3)CCN(C)CC2)cc1OC , please.
0.72

Tell me the measured log10 of Ki of COc1ccc(CCC(=O)NCC2(c3ccccc3)CCN(C)CC2)cc1 , please.
0.19

Tell me the measured log10 of Ki of COc1ccc(CCOC(=O)NCC2(c3ccccc3)CCN(C)CC2)cc1 , please.
0.36

Tell me the measured log10 of Ki of COc1ccc(CCC(=O)OCC2(c3ccccc3)CCN(C)CC2)cc1OC , please.
0.66

Tell me the measured log10 of Ki of COc1ccc(CCNC(=O)C2(c3ccccc3)CCN(C)CC2)cc1 , please.
0.52

Tell me the measured log10 of Ki of COc1ccc(CCNC(=O)NCC2(c3ccccc3)CCN(C)CC2)cc1 , please.
0.55

---

tested_target: Muscarinic acetylcholine receptor M1 (Homo sapiens)
Sequence (P11229 whole entry): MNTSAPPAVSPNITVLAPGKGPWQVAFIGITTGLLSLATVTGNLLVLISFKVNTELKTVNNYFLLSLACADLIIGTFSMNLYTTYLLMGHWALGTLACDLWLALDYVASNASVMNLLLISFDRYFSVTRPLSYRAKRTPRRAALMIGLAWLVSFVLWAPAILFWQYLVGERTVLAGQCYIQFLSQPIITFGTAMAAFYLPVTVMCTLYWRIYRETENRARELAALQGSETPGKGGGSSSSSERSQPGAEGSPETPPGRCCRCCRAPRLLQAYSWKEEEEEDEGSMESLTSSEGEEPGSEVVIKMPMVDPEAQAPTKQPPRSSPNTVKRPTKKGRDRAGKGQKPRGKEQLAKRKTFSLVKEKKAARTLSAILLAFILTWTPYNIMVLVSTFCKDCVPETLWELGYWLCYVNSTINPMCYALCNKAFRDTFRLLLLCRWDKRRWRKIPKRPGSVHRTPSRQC
Please provide measured pKi for the entries that follow.
Expect pKi as a plain number equal to -log10 of the molar concentration.

Lab note: need pKi for COc1ccc(CCNC(=O)NCC2(c3ccccc3)CCN(C)CC2)cc1 on Muscarinic acetylcholine receptor M1 (Homo sapiens), anyone have it?
5.27

Lab note: need pKi for COc1ccc(CCC(=O)OCC2(c3ccccc3)CCN(C)CC2)cc1OC on Muscarinic acetylcholine receptor M1 (Homo sapiens), anyone have it?
5.44

Lab note: need pKi for COc1ccc(CCOC(=O)C2(c3ccccc3)CCN(C)CC2)cc1OC on Muscarinic acetylcholine receptor M1 (Homo sapiens), anyone have it?
4.97

Lab note: need pKi for COc1ccc(CCNC(=O)OCC2(c3ccccc3)CCN(C)CC2)cc1OC on Muscarinic acetylcholine receptor M1 (Homo sapiens), anyone have it?
5.29

Lab note: need pKi for COc1ccc(CCC(=O)OCC2(c3ccccc3)CCN(C)CC2)cc1 on Muscarinic acetylcholine receptor M1 (Homo sapiens), anyone have it?
6.17

Lab note: need pKi for COc1ccc(CCOC(=O)NCC2(c3ccccc3)CCN(C)CC2)cc1 on Muscarinic acetylcholine receptor M1 (Homo sapiens), anyone have it?
5.54

Lab note: need pKi for COc1ccc(CCC(=O)NCC2(c3ccccc3)CCN(C)CC2)cc1 on Muscarinic acetylcholine receptor M1 (Homo sapiens), anyone have it?
5.46

Lab note: need pKi for COc1ccc(CCOC(=O)C2(c3ccccc3)CCN(C)CC2)cc1 on Muscarinic acetylcholine receptor M1 (Homo sapiens), anyone have it?
5.92
